- system_under_test: full-length human JP2 (junctophilin-2) (Homo sapiens, UniProt Q9BR39, S101R)
- Construct: gene JPH2; full-length, N-terminal MBP tag removed with PreScission protease; E. coli BL21; ~75 kDa on SDS/PAGE; stated as monomeric
- Sequence (Q9BR39 whole entry S101R): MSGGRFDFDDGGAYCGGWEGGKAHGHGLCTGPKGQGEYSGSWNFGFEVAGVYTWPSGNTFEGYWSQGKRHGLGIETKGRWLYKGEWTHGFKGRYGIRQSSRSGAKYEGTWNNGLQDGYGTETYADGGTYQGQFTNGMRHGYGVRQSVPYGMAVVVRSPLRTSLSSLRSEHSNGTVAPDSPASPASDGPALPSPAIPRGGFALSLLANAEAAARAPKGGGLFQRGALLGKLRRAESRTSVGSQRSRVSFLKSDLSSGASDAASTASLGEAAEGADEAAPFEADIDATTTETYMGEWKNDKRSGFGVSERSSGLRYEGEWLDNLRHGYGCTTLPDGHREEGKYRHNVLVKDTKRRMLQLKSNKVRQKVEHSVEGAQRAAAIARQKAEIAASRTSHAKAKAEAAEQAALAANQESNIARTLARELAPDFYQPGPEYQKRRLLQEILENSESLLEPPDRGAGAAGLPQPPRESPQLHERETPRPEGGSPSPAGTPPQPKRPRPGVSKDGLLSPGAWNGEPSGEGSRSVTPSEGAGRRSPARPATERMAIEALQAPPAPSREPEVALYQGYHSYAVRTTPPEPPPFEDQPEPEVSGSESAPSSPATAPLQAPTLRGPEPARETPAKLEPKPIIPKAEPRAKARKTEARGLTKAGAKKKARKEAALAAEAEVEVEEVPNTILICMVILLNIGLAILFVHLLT
- test_method_notes: QCM-D, supported lipid bilayer, one-site isotherm
- Format: binding
- test_conditions: read-out: DOPC/DOPE/POPC/DOPS (55:15:10:20, by vol.) / S101R
result_type: Kd (nM)
Give your result in nM as a bare value.

// returns reported Kd for input CCCCCCCC/C=C\CCCCCCCC(=O)OC[C@H](COP(=O)(O)OC[C@H](N)C(=O)O)OC(=O)CCCCCCC/C=C\CCCCCCCC [DOPS]
371

Source of measurements: paper PMC3898329
